Here the recorded cell number change is given for each entry.
test_name: qHTS Assay for Lipid Storage Modulators in Drosophila S3 Cells;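 on cell number change: cells counted by Cell Tracker Red CMTPX staining in the red channel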
details: BODIPY lipid droplet fluorescence, 18-24 h, cells fed with added oleic acid; measured here: cell count max response
In all, about 320,000 compounds went through this assay and about 2,100 (0.66%) were called active. About 53% were inconclusive and are not listed. The list comes from a sample in which actives are over-represented; it also holds close analogues and randomly drawn compounds.
Field format: number, assumed %, no unit text.

Worked cases, answers included:
>>> obs_value("O=C(CSc1nc2ccccc2o1)Nc1nncs1")
24.7
>>> obs_value("COc1ccc(NC(=O)CSCc2cc(=O)n3c(C)csc3n2)cc1")
4.18
>>> obs_value("Cc1c(CCOC(=O)C23CC4(C)CC(C)(CC(C)(C4)C2)C3)sc[n+]1CC(=O)c1ccccc1")
-53.8
>>> obs_value("CCOc1ccc(NC(=S)N2CCC(c3nc4ccccc4[nH]3)CC2)cc1")
0.472
>>> obs_value("CCOc1ccc(NC(=O)[C@@H](NC(=O)c2ccco2)C(C)C)cc1")
4.17

// cell number change lookup, compound = Cc1nnc(NC(=O)CSc2nc3ccccc3o2)s1 , result: -14

get_value(item= COc1ccc(C(=O)OCCc2sc[n+](CC(=O)c3ccccc3)c2C)cc1 , readout=cell number change) returns 15.7

// sample COc1ccc(NC(=O)c2cc(S(=O)(=O)N3CCOCC3)cn2C)cc1Cl , its cell number change was -8.07

Value of cell number change reported for the compound O=C(Nc1nccs1)c1cccc(S(=O)(=O)N2CCOCC2)c1 is 0.981

Entry O=C(NCCOc1nc(N2CCCCC2)nc(N2CCCCC2)n1)Nc1ccccc1 , cell number change reported as 0.327

Entry Cc1cc(C(=O)CCC(=O)Nc2ncccc2O)c(C)s1 — recorded cell number change = 23.7

====

Recorded cell number change values for a group of molecules are listed next.
test_name: qHTS Assay for Lipid Storage Modulators in Drosophila S3 Cells;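 on cell number change: cells counted by Cell Tracker Red CMTPX staining in the red channel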
details: BODIPY lipid droplet fluorescence, 18-24 h, cells fed with added oleic acid; measured here: cell count max response
The whole screen tested about 320,000 compounds, of which about 2,100 (0.66%) were called active. About 53% were inconclusive and are not listed. What follows is part of a selection rich in actives, with near analogues and random picks from the rest.
Provide the reading as a plain figure in %.

>>> obs_value("CCc1ccc(NC(=O)CSc2nc(=O)n(CCCN3CCOCC3)c3c2CCCC3)cc1")
-8.01
>>> obs_value("CCCCc1ccc(NC(=O)CSc2nc(=O)n(CCCN3CCOCC3)c3c2CCC3)cc1")
12.5
>>> obs_value("COc1ccc(C(=O)N2CCN(S(=O)(=O)c3ccc(C)cc3)CC2)cc1S(=O)(=O)N1CCOCC1")
3.33
>>> obs_value("O=C(CCN1C(=O)/C(=C/c2ccc(F)cc2)SC1=S)N[C@@H](CO)Cc1ccccc1")
-1.15
>>> obs_value("O=c1ccn(Cc2ccccc2)c2ccccc12")
-20.5
>>> obs_value("Cc1ccc(NC(=O)Cn2c(O)c(N=NC(N)=O)c3ccccc32)cc1")
-8.5
>>> obs_value("CC1CCCCN1C(=O)Cn1c(=O)n(CCC(=O)NCc2ccco2)c(=O)c2sccc21 (stereo unspecified)")
-5.81
>>> obs_value("COc1cc(/C=C2\\SC(=S)N(CCC(=O)Nc3ccccc3)C2=O)cc(OC)c1OC")
15

// sample Cc1nnc(NC(=O)Cn2nc(C)c3ccccc3c2=O)s1 , its cell number change was 9.11

Noted for Cc1cccc(NC(=O)CSc2nc3ccccc3nc2N2CC(C)OC(C)C2)c1 (stereo unspecified) : its cell number change reads 8.93

Query COc1ccc(OC)c(C2=NOC(C(=O)NCc3cccs3)C2)c1 (stereo unspecified) yields cell number change of 19.5

Just so you know, measured cell number change for CC1CN(c2nc3ccccc3nc2SCC(=O)Nc2ccc(F)cc2)CC(C)O1 (stereo unspecified) came out at 22.5

====

test_name: qHTS Assay for Lipid Storage Modulators in Drosophila S3 Cells
details: BODIPY lipid droplet fluorescence, 18-24 h, cells fed with added oleic acid; series mostly up to 46.1 µM
The whole screen tested about 320,000 compounds, of which about 2,100 (0.66%) were called active. Not shown: some 53% with an inconclusive outcome. This is one part of a sample in which actives are shown more often than they occur.
experimental_endpoint: outcome

Example entries begin here.
>>> obs_value("O=C1CCc2cc(S(=O)(=O)NC3CCCCC3)cc3c2N1CC3")
"inactive [at 0.0737 µM]"
>>> obs_value("O=C(COc1ccc(S(=O)(=O)N2CCOCC2)cc1)Nc1ccccc1F")
"inactive [at 0.0737 µM]"
>>> obs_value("CCC(CC)c1nnc(NC(=O)CN2C(=O)NC3(CCCC3)C2=O)s1")
"inactive [at 0.369 µM]"
>>> obs_value("Cc1ccc(C(C)C)c(OCC(=O)NNC(=O)CC2OC(=O)c3ccccc32)c1 (configuration not stated)")
"inactive [at 0.0737 µM]"
>>> obs_value("O=C(N/C(=C\\c1ccccc1)C(=O)N1CCCCC1)c1ccc(Br)o1")
"inactive [at 0.369 µM]"
>>> obs_value("CC(OC(=O)Cc1n[nH]c(=O)c2ccccc12)C(=O)Nc1ccc(F)cc1 (configuration not stated)")
"inactive [at 0.0737 µM]"
>>> obs_value("COc1ccc(Cl)cc1NS(=O)(=O)c1cccc(C(=O)NCC(c2ccco2)N(C)C)c1 (configuration not stated)")
"inactive [at 0.369 µM]"
>>> obs_value("Cc1ccc(C(=O)OCC(=O)NCCNC(=O)COC(=O)c2ccc(C)o2)o1")
"inactive [at 0.0737 µM]"

The recorded outcome for COc1ccc(COC(=O)C2CC(=O)N(Cc3ccc(C)cc3)C2)cc1 (configuration not stated) is inactive [at 0.369 µM]

Record summary for O=C(COc1coc(CN2CCN(c3ccccc3)CC2)cc1=O)NCC1CCCO1 (configuration not stated) : reported outcome = inactive [at 0.0737 µM]

Lab note: Cc1ccc(NC(=O)COc2coc(CN3CCc4ccccc4C3)cc2=O)c(C)c1 gave outcome of inactive [at 0.0737 µM]

====

test_name: qHTS Assay for Lipid Storage Modulators in Drosophila S3 Cells; further: potency means the concentration at half of the fitted maximal effect
details: BODIPY lipid droplet fluorescence, 18-24 h, cells fed with added oleic acid; series mostly up to 46.1 µM
Among all 320,000 compounds or so, about 2,100 (0.66%) were called active. Not shown: some 53% with an inconclusive outcome. The full list was thinned out, with actives kept by preference.
experimental_endpoint: Potency

Field: example entries. Status: answers known.
>>> obs_value("COc1ccc(Br)cc1CN(C)C(=O)Cc1ccc(OC)c(S(=O)(=O)N2CCOCC2)c1")
"10.3 µM (active)"
>>> obs_value("COc1cc(/C=C/C(=O)N2CCN(c3ccccn3)CC2)cc(OC)c1OC")
"16.4 µM (active)"
>>> obs_value("O=C(Nc1ccc(NC(=O)c2ccc(Cl)c(S(=O)(=O)N3CCOCC3)c2)cc1)c1ccccc1")
"inactive"
>>> obs_value("COc1ccc(OC)c(S(=O)(=O)N2CCN(c3ccccn3)CC2)c1")
"inactive"

Proceed to the following item.
Entry O=C(Nc1ccccc1C(=O)O)c1ccc(Cl)c(S(=O)(=O)N2CCOCC2)c1 — recorded Potency = inactive

====

test_name: qHTS Assay for Lipid Storage Modulators in Drosophila S3 Cells
details: BODIPY lipid droplet fluorescence, 18-24 h, cells fed with added oleic acid; series mostly up to 46.1 µM
The whole screen tested about 320,000 compounds, of which about 2,100 (0.66%) were called active. Inconclusive results (about 53%) are left out. The call rests on the fitted dose curve; in most records, active means well fitted inhibition curve with a large enough effect in the signal ratio, with a control signal flat (not every such curve was filed as active); inconclusive means small, poorly fitted or top-dose-only effect, or effect the other way, or a change in a side signal; inactive means flat fitted curve, though single readings scatter; the % refers to the signal ratio. The sample holds actives, similar compounds and a random draw of the others, so the mix is not that of the screen.
Hi! Could you answer with just one of these? true (1) = active, false (0) = inactive

Record excerpt, results attached:
>>> assigned_class("COc1ccc(S(=O)(=O)N2CCN(c3nc4ccccc4nc3-n3nc(C)cc3C)CC2)cc1")
"false (0)"
>>> assigned_class("Cc1nn(CCCC(=O)NCc2ccco2)c(=O)c2nn(-c3ccccc3)c(C)c12")
"false (0)"
>>> assigned_class("Cc1cc(NS(=O)(=O)c2ccc(NC(=O)CCCC(=O)O)cc2)nc(C)n1")
"false (0)"
>>> assigned_class("COC(=O)COc1coc(CN2CCN(c3cccc(Cl)c3)CC2)cc1=O")
"false (0)"
>>> assigned_class("CCCN(CCC)S(=O)(=O)c1ccc2c(c1)CCCN2C(C)=O")
"false (0)"

GET /call?item= Cc1ccc(NS(=O)(=O)c2ccc(-c3ccc(=O)[nH]n3)o2)c(C)c1 returns the recorded outcome of this test.
false (0)

====

test_name: qHTS Assay for Lipid Storage Modulators in Drosophila S3 Cells
details: BODIPY lipid droplet fluorescence, 18-24 h, cells fed with added oleic acid; series mostly up to 46.1 µM
The campaign covered roughly 320,000 compounds. About 2,100 (0.66%) were called active. Roughly 53% stayed inconclusive and do not appear here. The call rests on the fitted dose curve; in most records, active means well fitted inhibition curve with a large enough effect in the signal ratio, with a control signal flat (not every such curve was filed as active); inconclusive means small, poorly fitted or top-dose-only effect, or effect the other way, or a change in a side signal; inactive means flat fitted curve, though single readings scatter; the % refers to the signal ratio. The sample as a whole holds a higher share of actives than the screen did.
// allowed return values: T for active, F for inactive

Completed entries (count: 4):
>>> assigned_class("COc1ccc(S(=O)(=O)N2CCC(C(=O)NCCc3ccccc3)CC2)cc1")
"F"
>>> assigned_class("O=C(NC1CCCCC1)C1CCCN(S(=O)(=O)c2ccc(F)cc2)C1 (stereo not given)")
"F"
>>> assigned_class("Cc1ccc(S(=O)(=O)N2CCC(C(=O)NCc3ccncc3)CC2)cc1")
"T"
>>> assigned_class("CCOc1ccc(NC(=O)CSc2nc3ccccc3nc2N2CCOCC2)cc1")
"T"

For this compound, state the assay outcome: O=C(NC1CCCCCC1)C1CCN(S(=O)(=O)c2ccc(F)cc2)CC1
F

Give the logged outcome of this assay for the following compound: CCCCc1ccc(NC(=O)CSc2nc(=O)n(CCCN3CCOCC3)c3c2CCC3)cc1
F

Please state the recorded outcome for this compound: CSc1ccc(S(=O)(=O)N2CCC(C(=O)NCc3ccncc3)CC2)cc1
F

Please let me know the test result on file for O=C(NCc1ccncc1)C1CCN(S(=O)(=O)c2ccc(F)cc2)CC1 .
F

# fetch the recorded call for CC1CN(c2nc3ccccc3nc2SCC(=O)Nc2ccc(F)cc2)CC(C)O1 (stereo not given) here
T

Returns: the outcome recorded for COc1ccc(NC(=O)CSc2nc3ccccc3nc2N2CCCCC2)cc1 in this assay.
F
